Molecular target: UniProt O75762
Assay: hTRPA1 CHO Ca2+ FLIPR Tetra assay: block of cinnamaldehyde induced calcium influx
Assay type: cell-based
Conditions: read-out: hTRPA1 IC50 10 min; CHO cells expressing TRPA1; 10 minutes incubation with compound before cinnamaldehyde (about EC80); Hill coefficient fixed to 1.5
Can you tell me pIC50 for the items I'm about to list?
Keep in mind that pIC50 stands for -log10 of concentration in molar terms.

Input line: Name the recorded pIC50 of the compound listed here: `Cn1cnc2ncn(Cc3nc([C@@H]4CO[C@@H](c5ccc6ccccc6c5)C4)no3)c(=O)c21`
Output line: 8.39

Input line: Name the recorded pIC50 of the compound listed here: `Nc1nc2ncccc2c(=O)n1Cc1nc([C@@H]2CO[C@@H](c3cccc(F)c3)C2)no1`
Output line: 7.50

Input line: Name the recorded pIC50 of the compound listed here: `Cn1cnc2ncn(Cc3nc([C@@H]4CO[C@@H](c5cccc(Cl)c5)C4)no3)c(=O)c21`
Output line: 7.53

Input line: Name the recorded pIC50 of the compound listed here: `Cn1cnc2ncn(Cc3nc([C@@H]4CO[C@@H](c5ccc(F)cc5)C4)no3)c2c1=O`
Output line: 7.23

Input line: Name the recorded pIC50 of the compound listed here: `Cn1c(=O)c2c(ncn2Cc2nc([C@@H]3CO[C@@H](c4ccc(Cl)cc4)C3)no2)n(C)c1=O`
Output line: 7.29

Input line: Name the recorded pIC50 of the compound listed here: Cc1ccnc2ncn(Cc3nc([C@@H]4CO[C@@H](c5ccc(Cl)cc5)C4)no3)c(=O)c12 [Example 54]
Output line: 8.67

Input line: Name the recorded pIC50 of the compound listed here: `O=c1c2cccnc2ncn1Cc1nc([C@@H]2CO[C@@H](c3ccc(F)cc3)C2)no1`
Output line: 6.97

Input line: Name the recorded pIC50 of the compound listed here: `Cn1cnc2ncn(Cc3nc([C@@H]4CO[C@@H](c5ccc(Cl)cn5)C4)no3)c(=O)c21`
Output line: 6.72

Input line: Name the recorded pIC50 of the compound listed here: `Cn1cnc2ncn(Cc3nc([C@@H]4CO[C@@H](c5ccccc5Cl)C4)no3)c(=O)c21`
Output line: 6.47

Input line: Name the recorded pIC50 of the compound listed here: `Cc1cnn2ncn(Cc3nc([C@@H]4CO[C@@H](c5ccc6cn[nH]c6c5)C4)no3)c(=O)c12`
Output line: 7.71

Input line: Name the recorded pIC50 of the compound listed here: `Cc1nc2nc(Cl)n(C)c2c(=O)n1Cc1nc([C@@H]2CO[C@@H](c3ccc(Cl)cc3)C2)no1`
Output line: 7.42

Input line: Name the recorded pIC50 of the compound listed here: `Nc1ccc2c(=O)n(Cc3nc([C@@H]4CO[C@@H](c5ccc(F)cc5)C4)no3)cnc2n1`
Output line: 7.81

Input line: Name the recorded pIC50 of the compound listed here: `Cn1cnc2ncn(Cc3nc([C@@H]4CO[C@@H](c5cc(F)cc(F)c5)C4)no3)c(=O)c21`
Output line: 7.20

Input line: Name the recorded pIC50 of the compound listed here: `Cn1cnc2ncn(Cc3nc([C@@H]4CO[C@@H](c5ccc(C(F)(F)F)cc5)C4)no3)c(=O)c21`
Output line: 7.33

Input line: Name the recorded pIC50 of the compound listed here: `Cn1cnc2ccn(Cc3nc([C@@H]4CO[C@@H](c5ccc(Cl)cc5)C4)no3)c(=O)c21`
Output line: 8.51

====

Target: human TRPA1 channel (Homo sapiens (Human))
Experiment: hTRPA1 CHO Ca2+ FLIPR Tetra assay: block of cinnamaldehyde induced calcium influx
Assay type: cell-based
Conditions: read-out: hTRPA1 IC50 90 min; CHO cells expressing TRPA1; 90 minutes incubation with compound before cinnamaldehyde (about EC80); Hill coefficient fixed to 1.5
Can you tell me log10 IC50 for the items I'm about to list?
log10 IC50, nM

Input line: Name the recorded log10 IC50 of the compound listed here: `Cc1cncc2ncn(Cc3nc([C@@H]4CO[C@@H](c5ccc(F)cc5)C4)no3)c(=O)c12`
Output line: 0.08

Input line: Name the recorded log10 IC50 of the compound listed here: `Cn1cnc2ncn(Cc3nc([C@@H]4CO[C@@H](c5ccc(C(F)(F)F)cc5)C4)no3)c(=O)c21`
Output line: 1.46

Input line: Name the recorded log10 IC50 of the compound listed here: `Cn1cnc2cnn(Cc3nc([C@@H]4CO[C@@H](c5ccc(Cl)cc5)C4)no3)c(=O)c21`
Output line: 1.26

Input line: Name the recorded log10 IC50 of the compound listed here: `Cn1ncc2ncn(Cc3nc([C@@H]4CO[C@@H](c5ccc(Cl)cc5)C4)no3)c(=O)c21`
Output line: 1.51

Input line: Name the recorded log10 IC50 of the compound listed here: Cc1ccnc2ncn(Cc3nc([C@@H]4CO[C@@H](c5ccc(Cl)cc5)C4)no3)c(=O)c12 [Example 58]
Output line: 1.72

Input line: Name the recorded log10 IC50 of the compound listed here: `N#Cc1cnn2ncn(Cc3nc([C@@H]4CO[C@@H](c5ccc(Cl)cc5)C4)no3)c(=O)c12`
Output line: 1.60

Input line: Name the recorded log10 IC50 of the compound listed here: `Cn1cnc2ncn(Cc3nc([C@@H]4CO[C@@H](c5ccc(Cl)cn5)C4)no3)c(=O)c21`
Output line: 2.23

Input line: Name the recorded log10 IC50 of the compound listed here: `Cc1ccnc2ncn(Cc3nc([C@@H]4CO[C@@H](c5ccc(F)cc5)C4)no3)c(=O)c12`
Output line: 0.56

Input line: Name the recorded log10 IC50 of the compound listed here: `Cn1cnc2nc(N)n(Cc3nc([C@@H]4CO[C@@H](c5ccc(S(F)(F)(F)(F)F)cc5)C4)no3)c(=O)c21`
Output line: 2.08

Input line: Name the recorded log10 IC50 of the compound listed here: `CN1CCc2c(ncn(Cc3nc([C@@H]4CO[C@@H](c5ccc(Cl)cc5)C4)no3)c2=O)C1`
Output line: 2.65

Input line: Name the recorded log10 IC50 of the compound listed here: `Cn1cnc2ncn(Cc3nc([C@@H]4CO[C@@H](c5ccc(S(F)(F)(F)(F)F)cc5)C4)no3)c(=O)c21`
Output line: 2.97

Input line: Name the recorded log10 IC50 of the compound listed here: `Nc1ccc2c(=O)n(Cc3nc([C@@H]4CO[C@@H](c5ccc(Cl)cc5)C4)no3)ncc2n1`
Output line: 0.54

Input line: Name the recorded log10 IC50 of the compound listed here: `Cn1cnc2ncn(Cc3nc([C@@H]4CO[C@@](C)(c5ccc(Cl)cc5)C4)no3)c(=O)c21`
Output line: 3.34

Input line: Name the recorded log10 IC50 of the compound listed here: `Cc1ccnc2cnn(Cc3nc([C@@H]4CO[C@@H](c5ccc(F)cc5)C4)no3)c(=O)c12`
Output line: 0.83

Input line: Name the recorded log10 IC50 of the compound listed here: `Cn1cnc2ncn(Cc3nc([C@@H]4CO[C@@H](c5cccc(F)c5)C4)no3)c(=O)c21`
Output line: 1.23

====

Target: human TRPA1 channel (Homo sapiens (Human), UniProt O75762)
Sequence (O75762 whole entry): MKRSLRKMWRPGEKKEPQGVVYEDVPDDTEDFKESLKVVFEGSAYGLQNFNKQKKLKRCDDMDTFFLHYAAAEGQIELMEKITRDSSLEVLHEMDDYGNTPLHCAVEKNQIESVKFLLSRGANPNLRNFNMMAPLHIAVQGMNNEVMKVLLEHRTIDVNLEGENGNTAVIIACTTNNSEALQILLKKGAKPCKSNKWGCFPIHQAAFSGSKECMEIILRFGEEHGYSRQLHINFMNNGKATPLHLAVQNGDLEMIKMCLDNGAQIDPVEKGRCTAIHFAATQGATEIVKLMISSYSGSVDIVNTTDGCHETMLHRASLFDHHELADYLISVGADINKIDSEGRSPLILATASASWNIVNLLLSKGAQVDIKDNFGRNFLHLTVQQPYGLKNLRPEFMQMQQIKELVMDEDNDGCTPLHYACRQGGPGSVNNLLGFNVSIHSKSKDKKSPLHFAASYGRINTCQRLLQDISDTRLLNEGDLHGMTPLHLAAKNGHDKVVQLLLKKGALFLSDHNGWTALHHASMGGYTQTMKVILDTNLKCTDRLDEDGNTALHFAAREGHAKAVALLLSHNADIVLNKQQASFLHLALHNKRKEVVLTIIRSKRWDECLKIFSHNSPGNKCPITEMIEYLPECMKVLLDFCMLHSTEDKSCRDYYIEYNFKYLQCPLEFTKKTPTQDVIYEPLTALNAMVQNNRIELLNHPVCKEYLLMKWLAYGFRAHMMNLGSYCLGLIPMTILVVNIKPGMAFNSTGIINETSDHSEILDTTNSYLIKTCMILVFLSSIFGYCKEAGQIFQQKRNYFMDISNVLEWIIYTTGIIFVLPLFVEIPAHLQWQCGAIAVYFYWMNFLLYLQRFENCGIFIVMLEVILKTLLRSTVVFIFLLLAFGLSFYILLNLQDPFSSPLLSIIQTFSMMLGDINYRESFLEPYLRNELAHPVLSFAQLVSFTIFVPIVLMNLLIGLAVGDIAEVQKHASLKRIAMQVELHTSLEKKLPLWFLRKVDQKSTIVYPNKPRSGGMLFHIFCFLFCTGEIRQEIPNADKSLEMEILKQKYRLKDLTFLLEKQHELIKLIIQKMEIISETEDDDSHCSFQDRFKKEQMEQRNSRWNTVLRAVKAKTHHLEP
Test: hTRPA1 CHO Ca2+ FLIPR Tetra assay: block of cinnamaldehyde induced calcium influx
Format: cell-based
Conditions: hTRPA1 IC50 10 min, CHO cells expressing TRPA1; 10 minutes incubation with compound before cinnamaldehyde (about EC80); Hill coefficient fixed to 1.5
Can you tell me log10(IC50) for the items I'm about to list?
log10 IC50, nM

Input line: Name the recorded log10(IC50) of the molecule listed here: Nc1nc2ncsc2c(=O)n1Cc1nc([C@@H]2CO[C@@H](c3ccc(Cl)cc3)C2)no1 (racemic)
Output line: 0.76

Input line: Name the recorded log10(IC50) of the molecule listed here: Cc1cccc2nn(Cc3nc([C@@H]4CO[C@@H](c5ccc(Cl)cc5)C4)no3)c(=O)n12 (racemic)
Output line: 2.18

Input line: Name the recorded log10(IC50) of the molecule listed here: Cn1nnc2ccn(Cc3nc([C@@H]4CO[C@@H](c5ccc(F)cc5)C4)no3)c(=O)c21 (racemic)
Output line: 0.84

Input line: Name the recorded log10(IC50) of the molecule listed here: Cc1nc2nc(N)n(Cc3nc([C@@H]4CO[C@@H](c5ccc(Cl)cc5)C4)no3)c(=O)c2n1C (racemic)
Output line: 1.63

Input line: Name the recorded log10(IC50) of the molecule listed here: `[2H]c1nc2nc(C)n(Cc3nc([C@@H]4CO[C@@H](c5ccc(Cl)cc5)C4)no3)c(=O)c2n1C`
Output line: 0.97

Input line: Name the recorded log10(IC50) of the molecule listed here: O=c1ccn2c(=O)n(Cc3nc([C@@H]4CO[C@@H](c5ccc(Cl)cc5)C4)no3)ccc2n1 (racemic)
Output line: 1.19

Input line: Name the recorded log10(IC50) of the molecule listed here: `Cn1cnc2ncn(Cc3nc([C@@H]4CO[C@@H](c5cc(F)c(Cl)c(F)c5)C4)no3)c(=O)c21`
Output line: 1.68

Input line: Name the recorded log10(IC50) of the molecule listed here: Cn1c(=O)oc2ncn(Cc3nc([C@@H]4CO[C@@H](c5ccc(Cl)cc5)C4)no3)c(=O)c21 (racemic)
Output line: 0.80

Input line: Name the recorded log10(IC50) of the molecule listed here: Cc1cnn2ncn(Cc3nc([C@@H]4CO[C@@H](c5ccc(Cl)cn5)C4)no3)c(=O)c12 (racemic)
Output line: 2.34

Input line: Name the recorded log10(IC50) of the molecule listed here: Cn1cnc2nc(N)n(Cc3nc([C@@H]4CO[C@@H](c5ccc(F)cc5)C4)no3)c2c1=O (racemic)
Output line: 2.67

Input line: Name the recorded log10(IC50) of the molecule listed here: Cc1nc2nc(N)n(C)c2c(=O)n1Cc1nc([C@@H]2CO[C@@H](c3ccc(Cl)cc3)C2)no1 (racemic)
Output line: 2.09

Input line: Name the recorded log10(IC50) of the molecule listed here: `Cc1nc2ncn(C)c2c(=O)n1Cc1nc([C@@H]2CO[C@@H](c3ccc(Cl)cc3)C2)no1`
Output line: 0.97

Input line: Name the recorded log10(IC50) of the molecule listed here: `COc1ccc([C@H]2C[C@H](c3noc(Cn4cnc5ncn(C)c5c4=O)n3)CO2)cc1`
Output line: 2.14

Input line: Name the recorded log10(IC50) of the molecule listed here: Cn1cncc1C(=O)NCc1nc([C@H]2CO[C@H](c3ccc(Cl)cc3)C2)no1 (racemic)
Output line: 1.59

Input line: Name the recorded log10(IC50) of the molecule listed here: Cc1nc(N(C)C)n2ncn(Cc3nc([C@@H]4CO[C@@H](c5ccc(Cl)cc5)C4)no3)c(=O)c12 (racemic)
Output line: 1.62

Input line: Name the recorded log10(IC50) of the molecule listed here: Cn1nnc2nc(N)n(Cc3nc([C@@H]4CO[C@@H](c5ccc(Cl)cc5)C4)no3)c(=O)c21 (racemic)
Output line: 1.21

Input line: Name the recorded log10(IC50) of the molecule listed here: O=c1c2cccc(=O)n2ccn1Cc1nc([C@@H]2CO[C@@H](c3ccc(Cl)cc3)C2)no1 (racemic)
Output line: 0.81

Input line: Name the recorded log10(IC50) of the molecule listed here: Cc1nc(N2CCOCC2)n2ncn(Cc3nc([C@@H]4CO[C@@H](c5ccc(Cl)cc5)C4)no3)c(=O)c12 (racemic)
Output line: 2.09

Input line: Name the recorded log10(IC50) of the molecule listed here: Nc1nccc2c(=O)n(Cc3nc([C@@H]4CO[C@@H](c5ccc(Cl)cc5)C4)no3)cnc12 (racemic)
Output line: 1.89

Input line: Name the recorded log10(IC50) of the molecule listed here: Cc1nc(Br)n2ncn(Cc3nc([C@@H]4CO[C@@H](c5ccc(Cl)cc5)C4)no3)c(=O)c12 (racemic)
Output line: -0.10
